# system_tested: Adrenergic receptor alpha-1 (Rattus norvegicus, UniProt P15823+P23944+P43140)
# run_description: Binding affinity towards alpha-1 adrenergic receptor in rat cortical membranes
# Type: cell membranes
Checkbox rule: Ki lower than 800 nM = 1.0; Ki not lower than 800 nM = 0.0.

molecule: COc1cccc(C2CCC(N3CCN(c4cccc5ccccc45)CC3)CC2)c1 (stereo in doubt)
class_label: 0.0

Request: Does this molecule meet the criterion Ki < 800 nM? COc1cccc(C2=CCC(N3CCN(c4ccccc4)CC3)CC2)c1 (stereo not given)
Response: 0.0

Request: Then what about the molecule COc1cccc(CCCCNCCOc2ccccn2)c1 ?
Response: 1.0

Request: Then what about the molecule COc1cccc2c1CCC/C2=C\CCN1CCN(c2ccccn2)CC1 ?
Response: 1.0

====

# run_description: Selectivity expressed as a ratio of affinity against Alpha 1A-Adrenoceptor to that of 5-HT1A receptor
This section presents molecules with their documented Selectivity values.
Just the number, please.

molecule: COc1cccc(C2CCC(NCCOc3ccccn3)CC2)c1 (stereo in doubt)
Selectivity: 53

Request: What does the data say about its Selectivity? Entry: COc1cccc2c1CCCC2CCCN1CCN(c2ccccn2)CC1 (configuration not stated)
Response: 4

Request: Then what about the molecule COc1cccc(C2CCC(N3CCN(c4ccccn4)CC3)CC2)c1 (trans isomer) ?
Response: 165

Request: Then what about the molecule COc1cccc(C2CCC(N3CCN(c4ccccc4OC)CC3)CC2)c1 (stereo in doubt; trans) ?
Response: 24

Request: Then what about the molecule COc1cccc2c1CCCC2CCCNCCOc1ccccn1 (configuration not stated) ?
Response: 2

Request: Then what about the molecule COc1cccc2c(CCCN3CCN(c4ccccn4)CC3)cccc12 ?
Response: 0.5

Request: Then what about the molecule COc1cccc2c(CCCNCCOc3ccccn3)cccc12 ?
Response: 17

====

Consider molecules characterized by their Ki with UniProtKB P25100.
Sequence (P25100 whole entry): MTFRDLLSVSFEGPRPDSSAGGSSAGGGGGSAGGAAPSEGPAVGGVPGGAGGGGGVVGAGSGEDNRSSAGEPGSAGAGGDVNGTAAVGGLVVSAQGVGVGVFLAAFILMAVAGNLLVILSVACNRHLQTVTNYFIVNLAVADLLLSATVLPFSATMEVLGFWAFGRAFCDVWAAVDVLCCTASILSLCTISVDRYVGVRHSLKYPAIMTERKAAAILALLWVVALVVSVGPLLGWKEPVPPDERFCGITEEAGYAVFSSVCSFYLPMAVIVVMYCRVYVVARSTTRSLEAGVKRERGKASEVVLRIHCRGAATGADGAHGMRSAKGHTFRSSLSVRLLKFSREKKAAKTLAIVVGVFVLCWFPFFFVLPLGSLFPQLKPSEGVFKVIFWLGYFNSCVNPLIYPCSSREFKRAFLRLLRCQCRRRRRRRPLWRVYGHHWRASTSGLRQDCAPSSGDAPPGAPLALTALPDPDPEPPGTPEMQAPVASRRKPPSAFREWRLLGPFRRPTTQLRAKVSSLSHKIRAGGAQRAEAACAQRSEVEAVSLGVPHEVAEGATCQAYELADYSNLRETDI
Please give a number only; it is taken to be in µM.

molecule: COc1cccc2c(CCCNCCOc3ccccn3)cccc12
Ki, µM: 0.0832

Request: What does the data say about its Ki? Entry: COc1cccc2c1CCCC2CCCNCCOc1ccccn1 (stereo not drawn)
Response: 0.0126

Request: Then what about the molecule COc1cccc(C2CCC(N3CCN(c4ccccn4)CC3)CC2)c1 (trans isomer) ?
Response: 0.118

====

# system_tested: 5-hydroxytryptamine receptor 1A (Homo sapiens) (UniProt P08908)
# Sequence (P08908 whole entry): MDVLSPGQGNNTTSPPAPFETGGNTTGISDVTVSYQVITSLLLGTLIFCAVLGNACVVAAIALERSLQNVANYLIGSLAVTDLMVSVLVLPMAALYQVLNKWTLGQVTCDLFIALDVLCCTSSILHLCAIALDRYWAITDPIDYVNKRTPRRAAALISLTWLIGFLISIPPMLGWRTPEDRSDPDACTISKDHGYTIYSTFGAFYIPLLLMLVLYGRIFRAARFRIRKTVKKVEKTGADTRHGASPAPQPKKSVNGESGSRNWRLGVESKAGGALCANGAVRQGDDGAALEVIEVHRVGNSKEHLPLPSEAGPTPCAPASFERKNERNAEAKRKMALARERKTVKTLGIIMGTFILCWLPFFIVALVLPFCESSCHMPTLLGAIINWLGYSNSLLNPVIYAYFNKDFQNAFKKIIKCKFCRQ
# run_description: Maximal stimulation was expressed as percentage of the maximal 5-HT response in the [35S]GTP-gamma-S, binding assay on 5-hydroxytryptamine 1A receptor
# Format: functional
Checkbox rule: Emax lower than 90% = 1.0; Emax not lower than 90% = 0.0.

Request: Does this compound meet the criterion Emax < 90%? COc1cccc(C2CCC(NCCOc3ccccn3)CC2)c1 (stereo in doubt)
Response: 1.0

====

# system_tested: 5-hydroxytryptamine receptor 1A (Rattus norvegicus)
# Sequence (P19327 whole entry): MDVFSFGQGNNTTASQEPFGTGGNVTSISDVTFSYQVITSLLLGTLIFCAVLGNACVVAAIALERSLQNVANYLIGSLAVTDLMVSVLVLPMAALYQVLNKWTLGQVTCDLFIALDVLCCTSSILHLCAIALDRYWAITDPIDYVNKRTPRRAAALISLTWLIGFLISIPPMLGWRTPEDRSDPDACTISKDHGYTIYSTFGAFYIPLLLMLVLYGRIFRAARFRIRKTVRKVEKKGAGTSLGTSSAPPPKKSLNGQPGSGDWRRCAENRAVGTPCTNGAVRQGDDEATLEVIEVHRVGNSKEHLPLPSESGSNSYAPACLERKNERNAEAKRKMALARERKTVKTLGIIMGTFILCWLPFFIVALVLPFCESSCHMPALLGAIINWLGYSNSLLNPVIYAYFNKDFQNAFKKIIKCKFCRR
This section presents compounds with their documented pKi values.
pKi (log units): -log10 of the concentration in mol/L.

compound: COc1cccc2c(CCCN3CCN(c4ccccn4)CC3)cccc12
system_tested: 5-hydroxytryptamine receptor 1A (Rattus norvegicus)
measured: 9.42

Request: What does the data say about its pKi? Entry: COc1cccc(C2CCC(N3CCN(c4ccccc4)CC3)CC2)c1 (stereo in doubt; cis)
Response: 6.74

Request: Then what about the compound COc1cccc(C2CCC(N3CCN(c4cccc5ccccc45)CC3)CC2)c1 (trans isomer) ?
Response: 9.66

Request: Then what about the compound COc1cccc2c1CCC/C2=C\CCN1CCN(c2ccccn2)CC1 ?
Response: 9.51

Request: Then what about the compound COc1ccccc1C1CCC(N2CCN(c3ccccn3)CC2)CC1 (stereo in doubt; cis) ?
Response: 6.32
